# credit: PubChem BioAssay (NCI)

test system: BT-549 breast; test: NCI tumour cell line growth inhibition, 48 h; in the data active = GI50 below about 0.43 µM; inactive = the rest
Hello, when you answer, please use one of the following outcomes: active, inactive

Worked cases, answers included:
1) COc1cc(/C=C/c2cc(/C=C/c3ccc(O)c(OC)c3)n(C(=O)Nc3ccc(F)c(Cl)c3)n2)ccc1O: inactive
2) COc1cc2c(c(OC)c1OC)-c1ccc(OC)c(=O)cc1[C@@H](NC(=O)c1ccccc1)CC2: active
3) C[C@@]12CC=C3c4nc(Nc5cccc(O)c5)sc4CC[C@]3(C)[C@H]1CC[C@]1(C)C(=O)CC[C@@H]21: inactive

Exam item: Please let me know the test result on file for CC(C)(C)c1cc(C(C)(C)C)cc(S(=O)(=O)Nc2cc3ccccc3cc2C(=O)NCCN)c1 .
Marked response: inactive

Exam item: Please let me know the test result on file for CN1C/C=C\CCOc2cccc(c2)-c2ccnc(n2)Nc2cccc(c2)C1 .
Marked response: active

Exam item: Please let me know the test result on file for Clc1ccc(C2=Nn3c(COc4ccccc4Cl)nnc3SC2)c(Cl)c1 .
Marked response: inactive

Exam item: Please let me know the test result on file for CCOC(=O)c1c(C)n(Cc2ccc(Cl)cc2Cl)c2c1c(CN(C)C)c(O)c1[nH]cnc12 .
Marked response: inactive

----------
test system: M14 melanoma; assay: NCI tumour cell line growth inhibition, 48 h
endpoint label: GI50

1) CN1CCN(CCCOc2ccc3nc(Nc4ccc(Cl)c(C(F)(F)F)c4)ccc3c2)CC1: 12.7 µM
2) COc1ccc(-c2n[nH]nc2-c2cc(OC)c(OC)c(OC)c2)cc1: < 0.01 µM
3) CCC[CH2][Sn]1([CH2]CCC)[O]CC(CN2CCCC2)[O]1 (centres undefined): 16.9 µM
4) NS(=O)(=O)c1ccc(N=Nc2c(O)[nH]c3ccc(-c4cnco4)cc23)cc1: > 25 µM
5) COc1cc2nc3cc([N+](=O)[O-])ccc3c(NCCCNCCO)c2cc1OC: 0.205 µM

# GI50 of CC(=O)/C(C)=N/NC(=O)c1ccccc1O = > 100 µM

# GI50 of COc1cc(/C=C/c2cc(/C=C/c3ccc(O)c(OC)c3)n(C(=O)Nc3ccc(F)c(Cl)c3)n2)ccc1O = 0.114 µM

----------
Recorded TGI, one value per entry.
tested on: NCI-H23 lung; test: NCI tumour cell line growth inhibition, 48 h

1) NN/C(=N\S(=O)(=O)c1cc2ccccc2s1)Nc1ccc(Cl)cc1: 41.4 µM
2) OCC(O)COCn1nncc1Cn1ncc2c(SCc3ccccc3)ncnc21 (stereo not drawn): > 100 µM
3) CCN(CC)CCNc1nc2ccc([N+](=O)[O-])cc2[n+]([O-])n1: 47.4 µM
4) COC(CNC(=O)C(C)NC(=O)CCc1ccccc1)OC (stereo not drawn): > 100 µM
5) COc1cc(-c2ccc3c(c2)NC(=O)/C3=C\c2ccc[nH]2)ccc1O: > 50 µM

# TGI of O=C1CC(=Nc2ccc(Cl)cc2)C(c2ccccc2)N1c1ccccc1 (stereo not drawn) = 70.9 µM

# TGI of CCOc1ccccc1NC(=O)CC(C(=O)OC)C(=O)C(=O)OC (stereo not drawn) = > 100 µM

# TGI of CCOC(=O)/C=C(/C(=O)OCC)n1ccc(=O)n(Cc2cn(COCCOC(C)=O)nn2)c1=O = 41.4 µM

# TGI of O=C(NC1=CC(=O)c2ccccc2C1=O)c1ccccc1 = 9.5 µM

# TGI of CC(=O)OC(/C=C/c1ccccc1)=C(OC(C)C)/C1=C(\c2ccccc2)SCCCSC1=O = > 100 µM

# TGI of Oc1ccc(-c2nc(-c3cccnc3)c(-c3ccc(Cl)cc3)[nH]2)cc1 = 25.9 µM

# TGI of O=C(NI1OC(=O)c2ccccc21)c1ccc(Cl)cc1 = > 100 µM

# TGI of O=S(=O)(N=S(c1ccccc1)c1ccccc1)c1ccccc1 = > 100 µM

# TGI of COc1cc(C=C2C(=O)NC(=O)NC2=O)cc(OC)c1OC = > 100 µM

# TGI of Cc1cn(C2CC(O)C(CO)O2)c(=O)n2nnnc12 (stereo not drawn) = > 100 µM

# TGI of CCCCN1C(=O)N(c2ccc(OCC)cc2)C2N(CCCC)C1C(C)(C)C2(C)C (stereo not drawn) = > 100 µM

# TGI of Cc1ccn2c(c1)nc1nc3ccccc3nc12 = > 100 µM

# TGI of N=C(N)c1ccc(C(NC(=O)CNS(=O)(=O)c2ccc3ccccc3c2)P(=O)(Oc2ccccc2)Oc2ccccc2)cc1 (stereo not drawn) = > 100 µM

# TGI of O=Cc1ccc2c(c1)CC1(Cc3ccccc3C1)C2 = 50 µM

# TGI of COc1cc(C(C)O)c[n+](CCc2c[nH]c3ccccc23)c1 (stereo not drawn) = > 100 µM
